Data credit: ChEMBL document CHEMBL3817783

For each entry below, report its fold change (FC) value.
Target: 3-hydroxyisobutyryl-CoA hydrolase, mitochondrial (Homo sapiens)
Experiment: Binding affinity to human recombinant HIBCH assessed as intensity fold change of cumulated normalized intensity of protein between capture and competition assay at 100 uM after 1 hr in presence of active Tcp-CC-13 by differential competition capture compound mass spectrometry
Lab note: jot the number down without any unit.

// fold change (FC) lookup, compound = "CCN1C(=O)S/C(=C/c2cc(O)c(O)c([N+](=O)[O-])c2)C1=O" , result: 1

// fold change (FC) lookup, compound = "CCN(CC)C(=O)/C(C#N)=C/c1cc(O)c(O)c([N+](=O)[O-])c1" , result: 1.04

// fold change (FC) lookup, compound = "Cc1ccc(C(=O)c2cc(O)c(O)c([N+](=O)[O-])c2)cc1" , result: 14.2

// fold change (FC) lookup, compound = "CCN(CC)C(=O)c1cc2cc(O)c(O)c([N+](=O)[O-])c2cc1C(=O)N(CC)CC" , result: 5.35

###

For each entry below, report its Activity value.
Tested on: HepG2
Experiment: Mitochondrial toxicity in human HepG2 cells assessed as mitochondrial membrane potential levels at 50 uM by TMRE-based mitochondria membrane potential assay relative to control
Assay type: cell-based
Conditions: hepg2, 50 µM

// Activity lookup, molecule = "CCN1C(=O)S/C(=C/c2cc(O)c(O)c([N+](=O)[O-])c2)C1=O" , result: > 50%

// Activity lookup, molecule = "CCN(CC)C(=O)c1cc2cc(O)c(O)c([N+](=O)[O-])c2cc1C(=O)N(CC)CC" , result: < 20%

// Activity lookup, molecule = "Cc1ccc(C(=O)c2cc(O)c(O)c([N+](=O)[O-])c2)cc1" , result: < 20%

// Activity lookup, molecule = "CCN(CC)C(=O)/C(C#N)=C/c1cc(O)c(O)c([N+](=O)[O-])c1" , result: > 50%

###

For each entry below, report its fold change (FC) value.
Target: UniProt:O00764
Sequence (O00764 whole entry): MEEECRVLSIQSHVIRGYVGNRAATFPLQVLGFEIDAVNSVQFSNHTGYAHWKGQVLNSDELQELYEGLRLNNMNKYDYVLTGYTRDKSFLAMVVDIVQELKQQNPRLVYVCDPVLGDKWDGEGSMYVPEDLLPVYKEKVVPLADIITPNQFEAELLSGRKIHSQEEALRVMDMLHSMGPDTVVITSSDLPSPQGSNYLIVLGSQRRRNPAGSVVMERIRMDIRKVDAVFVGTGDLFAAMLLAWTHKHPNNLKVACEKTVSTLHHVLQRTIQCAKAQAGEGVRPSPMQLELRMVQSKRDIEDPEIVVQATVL
Test: Binding affinity to PDXK in human HepG2 assessed as intensity fold change of cumulated normalized intensity of protein between capture and competition assay at 100 uM after 1 hr in presence of inactive Tcp-CC 14 by differential competition capture compound mass spectrometry
Format: ADME

Item: CCN(CC)C(=O)/C(C#N)=C/c1cc(O)c(O)c([N+](=O)[O-])c1 [ENTACAPONE] | System: UniProt:O00764 | fold change (FC): 3.46

Item: "CCN1C(=O)S/C(=C/c2cc(O)c(O)c([N+](=O)[O-])c2)C1=O" | System: UniProt:O00764 | fold change (FC): 24.9

Item: "CCN(CC)C(=O)c1cc2cc(O)c(O)c([N+](=O)[O-])c2cc1C(=O)N(CC)CC" | System: UniProt:O00764 | fold change (FC): 16

Item: Cc1ccc(C(=O)c2cc(O)c(O)c([N+](=O)[O-])c2)cc1 [TOLCAPONE] | System: UniProt:O00764 | fold change (FC): 2.4
